PROCEDURE_DETAILS: Oral bioavailability in rat at 5 mg/kg
Type: ADME, organism-based
MEASUREMENT_CONDITIONS: in vivo
OUTCOME_MEASURE: bioavailability (%)
Numbers only, in %.

Record request: bioavailability value, item N#Cc1ccnc(Nc2cc(C3CCN(C4COC4)CC3)cc(N3CCC(F)(F)C3)n2)c1
63

###

ASSAY_TARGET: Mitogen-activated protein kinase kinase kinase 10 (Homo sapiens)
Sequence (Q02779 whole entry): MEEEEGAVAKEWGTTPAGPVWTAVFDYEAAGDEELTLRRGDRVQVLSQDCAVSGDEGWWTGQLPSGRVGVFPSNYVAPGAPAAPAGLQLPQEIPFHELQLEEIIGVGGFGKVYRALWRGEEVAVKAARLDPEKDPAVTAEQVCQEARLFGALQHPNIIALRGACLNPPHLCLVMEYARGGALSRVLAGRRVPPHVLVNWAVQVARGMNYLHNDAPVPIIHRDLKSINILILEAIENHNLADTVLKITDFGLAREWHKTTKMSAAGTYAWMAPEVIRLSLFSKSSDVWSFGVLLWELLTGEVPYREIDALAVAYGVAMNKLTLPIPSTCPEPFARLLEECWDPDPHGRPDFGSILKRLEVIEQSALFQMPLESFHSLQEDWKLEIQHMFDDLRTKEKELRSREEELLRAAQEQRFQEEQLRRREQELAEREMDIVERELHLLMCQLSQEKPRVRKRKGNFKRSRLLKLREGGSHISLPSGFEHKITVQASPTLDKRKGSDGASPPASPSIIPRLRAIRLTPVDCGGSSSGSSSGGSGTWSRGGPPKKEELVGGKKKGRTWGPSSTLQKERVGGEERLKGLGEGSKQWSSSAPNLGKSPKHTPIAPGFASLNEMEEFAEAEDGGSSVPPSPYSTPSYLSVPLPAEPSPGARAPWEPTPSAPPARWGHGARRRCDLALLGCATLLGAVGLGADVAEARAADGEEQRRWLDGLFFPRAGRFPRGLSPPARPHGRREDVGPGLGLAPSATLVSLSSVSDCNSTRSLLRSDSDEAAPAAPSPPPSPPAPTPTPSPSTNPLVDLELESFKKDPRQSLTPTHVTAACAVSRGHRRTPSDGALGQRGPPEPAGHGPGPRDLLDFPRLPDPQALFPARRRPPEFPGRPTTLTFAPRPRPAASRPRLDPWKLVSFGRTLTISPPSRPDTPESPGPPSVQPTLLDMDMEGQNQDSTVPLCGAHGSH
PROCEDURE_DETAILS: Inhibition of MLK2 (unknown origin)
OUTCOME_MEASURE: pIC50
Answers are plain numbers, as −log10 of the molar value.

Query the reported pIC50 for Mitogen-activated protein kinase kinase kinase 10 (Homo sapiens); item: N#Cc1ccnc(Nc2cc(C3CCN(C4COC4)CC3)cc(N3CCC(F)(F)C3)n2)c1
6.12

###

PROCEDURE_DETAILS: Plasma clearance in dog at 1 mg/kg, iv and 5 mg/kg, po
Assay type: ADME, organism-based, Canis lupus familiaris
OUTCOME_MEASURE: clearance (mL/min/kg)
Numbers only, in mL/min/kg.

Please give the measured clearance for this compound: N#Cc1ccnc(Nc2cc(C3CCN(C4COC4)CC3)cc(N3CCC(F)(F)C3)n2)c1
41

###

PROCEDURE_DETAILS: Oral bioavailability in dog at 5 mg/kg
Type: ADME, organism-based, Canis lupus familiaris
MEASUREMENT_CONDITIONS: in vivo
OUTCOME_MEASURE: bioavailability (%)
One number for each entry, in %.

Given the entry N#Cc1ccnc(Nc2cc(C3CCN(C4COC4)CC3)cc(N3CCC(F)(F)C3)n2)c1 , report its measured bioavailability.
32

###

ASSAY_TARGET: Dual specificity mitogen-activated protein kinase kinase 4 (Homo sapiens, UniProt P45985)
Sequence (P45985 whole entry): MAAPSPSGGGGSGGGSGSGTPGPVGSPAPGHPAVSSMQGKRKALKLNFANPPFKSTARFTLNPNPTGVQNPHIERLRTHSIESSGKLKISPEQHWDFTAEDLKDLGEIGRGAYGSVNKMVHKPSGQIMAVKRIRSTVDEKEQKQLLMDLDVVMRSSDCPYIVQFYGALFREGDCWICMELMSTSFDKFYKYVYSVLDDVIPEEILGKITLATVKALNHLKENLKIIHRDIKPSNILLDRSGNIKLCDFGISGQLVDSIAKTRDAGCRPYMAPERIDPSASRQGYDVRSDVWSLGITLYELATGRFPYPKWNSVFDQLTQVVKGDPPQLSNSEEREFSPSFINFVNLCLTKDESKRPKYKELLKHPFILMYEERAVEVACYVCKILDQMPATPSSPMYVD
PROCEDURE_DETAILS: Inhibition of MKK4 (unknown origin)
OUTCOME_MEASURE: IC50

Reported IC50 for N#Cc1ccnc(Nc2cc(C3CCN(C4COC4)CC3)cc(N3CCC(F)(F)C3)n2)c1 : what is it?
> 5 µM

###

PROCEDURE_DETAILS: Volume of distribution at steady state in dog at 1 mg/kg, iv and 5 mg/kg, po
Format: ADME, organism-based, Canis lupus familiaris
MEASUREMENT_CONDITIONS: in vivo, read-out: Vdss
OUTCOME_MEASURE: Vd (L/kg)
Answers are plain numbers, in L/kg.

# query: Vd of entry N#Cc1ccnc(Nc2cc(C3CCN(C4COC4)CC3)cc(N3CCC(F)(F)C3)n2)c1
6.5

###

PROCEDURE_DETAILS: Plasma clearance in rat at 1 mg/kg, iv and 5 mg/kg, po
Type: ADME, organism-based
OUTCOME_MEASURE: clearance (mL/min/kg)
Give bare numbers, in mL/min/kg.

Item under review: N#Cc1ccnc(Nc2cc(C3CCN(C4COC4)CC3)cc(N3CCC(F)(F)C3)n2)c1 . Reported clearance?
30

###

Assignment: determine reported pKi for the given compounds.
ASSAY_TARGET: Mitogen-activated protein kinase kinase kinase 12 (Homo sapiens, UniProt Q12852)
PROCEDURE_DETAILS: Inhibition of DLK (unknown origin)
Give bare numbers, as −log10 of the molar value.

| COMPOUND | pKi |
| --- | --- |
| CC(=O)N1CCC(c2cc(Nc3cc(C(F)(F)F)ccn3)nc(N3CCC(F)(F)C3)c2)CC1 | 9.00 |
| Cc1nc(Nc2ncc(C)s2)cc(C2CCCN(C(=O)c3ccccc3)C2)n1 (racemic) | 7.46 |
| CC(=O)N1CCC(c2cc(Nc3cc(C(F)(F)F)ccn3)nc(N3CCC(F)(F)C3)n2)CC1 | 7.48 |

Dear colleague, could you send me pKi for each of the items below? Thanks.
1. Cc1nc(Nc2cc(C3CC3)ccn2)cc(C2CCCN(C(=O)c3ccccc3)C2)n1 (racemic)
2. Cc1nc(Nc2cc(C#N)ccn2)cc(C2CCCN(C(=O)c3ccccc3)C2)n1 (racemic)

[7.74, 7.05]

###

ASSAY_TARGET: Mitogen-activated protein kinase 9 (Homo sapiens, UniProt P45984)
Sequence (P45984 whole entry): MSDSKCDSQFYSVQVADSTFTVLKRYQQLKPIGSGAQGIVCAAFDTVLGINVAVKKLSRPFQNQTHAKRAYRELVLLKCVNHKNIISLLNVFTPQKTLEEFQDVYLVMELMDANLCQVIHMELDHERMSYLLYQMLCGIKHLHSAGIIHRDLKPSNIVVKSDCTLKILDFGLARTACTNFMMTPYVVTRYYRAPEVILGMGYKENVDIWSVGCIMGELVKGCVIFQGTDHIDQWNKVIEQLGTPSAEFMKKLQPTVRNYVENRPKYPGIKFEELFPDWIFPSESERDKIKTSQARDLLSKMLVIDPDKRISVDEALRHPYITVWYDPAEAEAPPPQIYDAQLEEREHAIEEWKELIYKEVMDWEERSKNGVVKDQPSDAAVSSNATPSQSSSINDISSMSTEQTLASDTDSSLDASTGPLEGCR
PROCEDURE_DETAILS: Inhibition of JNK2 (unknown origin)
OUTCOME_MEASURE: pIC50
One number for each entry, as −log10 of the molar value.

Would you kindly share the measured pIC50 for N#Cc1ccnc(Nc2cc(C3CCN(C4COC4)CC3)cc(N3CCC(F)(F)C3)n2)c1 ?
6.29

###

PROCEDURE_DETAILS: Half life in rat at 1 mg/kg, iv and 5 mg/kg, po
Type: ADME, organism-based
MEASUREMENT_CONDITIONS: in vivo
OUTCOME_MEASURE: half-life (h)
One number for each entry, in h.

Fill in: half-life of N#Cc1ccnc(Nc2cc(C3CCN(C4COC4)CC3)cc(N3CCC(F)(F)C3)n2)c1 is ___
1.8

###

PROCEDURE_DETAILS: Oral bioavailability in cynomolgus monkey at 5 mg/kg
Type: ADME, organism-based, Macaca fascicularis
MEASUREMENT_CONDITIONS: in vivo
OUTCOME_MEASURE: bioavailability (%)
Numbers only, in %.

Field request: bioavailability | item: N#Cc1ccnc(Nc2cc(C3CCN(C4COC4)CC3)cc(N3CCC(F)(F)C3)n2)c1
19

###

Tested on: MDR1
PROCEDURE_DETAILS: Apparent permeability from apical to basolateral side in MDCK cells expressing human MDR1 at 5 uM after 60 to 180 mins by LC-MS/MS analysis
Type: ADME, cell-based, Canis lupus familiaris
MEASUREMENT_CONDITIONS: dog
OUTCOME_MEASURE: Papp A→B at 5 µM (×10⁻⁶ cm/s)
Give bare numbers, in ×10⁻⁶ cm/s.

Fill in the blank: the reported Papp A→B at 5 µM of N#Cc1ccnc(Nc2cc(C3CCN(C4COC4)CC3)cc(N3CCC(F)(F)C3)n2)c1 is ____.
6

###

ASSAY_TARGET: Mitogen-activated protein kinase kinase kinase 12 (Homo sapiens, UniProt Q12852)
PROCEDURE_DETAILS: Inhibition of DLK (unknown origin)
Exercise: for every item that follows, state its recorded pKi.
Answers are plain numbers, as −log10 of the molar value.

Below are worked cases with known answers.
| COMPOUND | ASSAY_TARGET | pKi |
| --- | --- | --- |
| Cc1ccnc(Nc2cc(C3CCCN(C(=O)c4ccccc4)C3)nc(C)n2)c1 (racemic) | Mitogen-activated protein kinase kinase kinase 12 (Homo sapiens, UniProt Q12852) | 7.07 |
| CC(=O)N1CCC(c2cc(Nc3cc(C#N)ccn3)nc(N3CCC(F)(F)C3)c2)CC1 | Mitogen-activated protein kinase kinase kinase 12 (Homo sapiens, UniProt Q12852) | 7.60 |
| COC1CN(c2cc(C3CCN(C4COC4)CC3)cc(Nc3cc(C#N)ccn3)n2)C1 | Mitogen-activated protein kinase kinase kinase 12 (Homo sapiens, UniProt Q12852) | 8.10 |
| N#Cc1ccnc(Nc2cc(C3CN(C4COC4)C3)cc(N3CCC(F)(F)C3)n2)c1 | Mitogen-activated protein kinase kinase kinase 12 (Homo sapiens, UniProt Q12852) | 9.15 |
| N#Cc1ccnc(Nc2cc(C3CCOCC3)cc(N3CCC(F)(F)C3)n2)c1 | Mitogen-activated protein kinase kinase kinase 12 (Homo sapiens, UniProt Q12852) | 9.05 |

For each listed entry, give its pKi.
1. CC(C)(O)c1cc(Nc2cc(C#N)ccn2)nc(N2CCC(F)(F)C2)c1
2. N#Cc1ccnc(Nc2cc(C3CCN(C4COC4)CC3)cc(OC3CCC3)n2)c1

8.30
9.70

###

ASSAY_TARGET: Mitogen-activated protein kinase kinase kinase 12 (Homo sapiens, UniProt Q12852)
PROCEDURE_DETAILS: Inhibition of DLK (unknown origin)
What pKi was measured for each of the following?
Numbers only, as −log10 of the molar value.

Please review the following examples before continuing.
| COMPOUND | pKi |
| --- | --- |
| Cc1nc(Nc2cc(C(F)(F)F)ccn2)cc(C2CCCN(C(=O)c3ccccc3)C2)n1 (racemic) | 7.62 |
| N#Cc1ccnc(Nc2cc(C3CCN(C4COC4)CC3)cc(C3CC3)n2)c1 | 9.00 |
| FC1(F)CCN(c2nc(Nc3cc(C(F)(F)F)ccn3)cc(C3CCOCC3)n2)C1 | 7.39 |
| Cc1nc(Nc2cc(C(F)(F)F)ccn2)cc(C2CCCNC2)n1 (racemic) | 6.14 |
| FC1(F)CCN(c2nc(Nc3cc(C(F)(F)F)ccn3)cc(C3CCCNC3)n2)C1 (stereo unspecified) | 8.15 |

Turning now to a further record.
Suppose we examine the compound FC(F)(F)c1ccnc(Nc2cc(C3CCCNC3)nc(N3CCCC3)n2)c1 (stereo unspecified) ; what pKi value has been reported?
8.15

###

ASSAY_TARGET: Mitogen-activated protein kinase kinase kinase 12 (Homo sapiens, UniProt Q12852)
Sequence (Q12852 whole entry): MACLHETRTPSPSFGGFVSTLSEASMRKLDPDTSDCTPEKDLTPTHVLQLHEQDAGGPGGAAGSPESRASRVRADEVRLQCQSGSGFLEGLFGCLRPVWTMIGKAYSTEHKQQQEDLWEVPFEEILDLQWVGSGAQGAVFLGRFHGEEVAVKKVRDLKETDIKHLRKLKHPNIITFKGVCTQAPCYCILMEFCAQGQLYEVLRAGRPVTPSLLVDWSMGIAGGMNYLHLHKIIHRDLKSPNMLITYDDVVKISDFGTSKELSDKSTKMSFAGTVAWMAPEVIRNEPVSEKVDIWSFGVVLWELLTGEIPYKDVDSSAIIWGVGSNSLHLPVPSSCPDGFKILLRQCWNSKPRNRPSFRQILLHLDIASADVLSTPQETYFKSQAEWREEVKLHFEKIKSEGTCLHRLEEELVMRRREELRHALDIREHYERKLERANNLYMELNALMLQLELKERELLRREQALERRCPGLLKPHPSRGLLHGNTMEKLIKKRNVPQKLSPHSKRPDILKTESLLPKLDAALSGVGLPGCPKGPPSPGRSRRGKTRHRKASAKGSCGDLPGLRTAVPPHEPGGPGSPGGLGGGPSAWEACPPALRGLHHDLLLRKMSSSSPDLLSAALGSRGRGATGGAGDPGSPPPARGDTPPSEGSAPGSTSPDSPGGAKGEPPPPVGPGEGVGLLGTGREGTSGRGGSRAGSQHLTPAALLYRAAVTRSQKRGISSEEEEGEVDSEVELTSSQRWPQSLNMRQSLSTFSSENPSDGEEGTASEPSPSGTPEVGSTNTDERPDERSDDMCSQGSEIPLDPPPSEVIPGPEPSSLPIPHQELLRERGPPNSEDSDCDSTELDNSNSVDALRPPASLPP
PROCEDURE_DETAILS: Inhibition of human DLK transfected in HEK293 cells assessed as JNK phosphorylation after 5.5 hrs by Hoechst-33342 staining-based assay
Answer each item with its documented pIC50.
Answers are plain numbers, as −log10 of the molar value.

| COMPOUND | RECORDED_RESULT |
| --- | --- |
| Cc1nc(Nc2cc(C(C)C)ccn2)cc(C2CCCN(C(=O)c3ccccc3)C2)n1 (racemic) | 5.89 |
| CC(C)(C#N)c1cc(Nc2cc(C#N)ccn2)nc(N2CCC(F)(F)C2)c1 | 6.71 |
| Cc1nc(Nc2cc(C3CC3)ccn2)cc(C2CCCN(C(=O)c3ccccc3)C2)n1 (racemic) | 6.31 |

For each entry beneath this line, provide reported pIC50.
1. CC(=O)N1CCC(c2cc(Nc3cc(C(F)(F)F)ccn3)nc(N3CCC(F)(F)C3)c2)CC1
2. N#Cc1ccnc(Nc2cc(C3CCOCC3)cc(N3CCC(F)(F)C3)n2)c1
3. N#Cc1ccnc(Nc2cc(C3CCN(C4COC4)CC3)cc(OC3CCC3)n2)c1
4. CC(C)(O)c1cc(Nc2cc(C#N)ccn2)nc(N2CCC(F)(F)C2)c1

[7.16, 7.15, 7.19, 6.90]

Values from ChEMBL document CHEMBL3393025
